# drug sensitivity score listing for each entry below
Test system: MCF-10A
assay.notes: drug sensitivity score (DSS), CellTiter-Glo (DSS (AUC-based score)); higher = stronger drug effect (viability inhibition or cytotoxicity); extreme values may be limits of the assay
applied.conditions: incubation time: 72 h
Respond with the number and no other words.

Reference set (3 entries):
[[record]]
compound = "Cc1nc(C(=O)NCC(=O)O)c(O)c2ccc(Oc3ccccc3)cc12"
quantity_measured = "drug sensitivity score"
val = 0

[[record]]
compound = "Nc1ccn([C@@H]2O[C@H](CO)[C@@H](O)C2(F)F)c(=O)n1"
quantity_measured = "drug sensitivity score"
val = 5.69

[[record]]
compound = "Cc1cn(-c2cc(NC(=O)c3ccc(C)c(Nc4nccc(-c5cccnc5)n4)c3)cc(C(F)(F)F)c2)cn1"
quantity_measured = "drug sensitivity score"
val = 0


Problem: Look at this compound and give its reported drug sensitivity score. CC(C)C[C@H](NC(=O)[C@@H](COC(C)(C)C)NC(=O)[C@H](Cc1ccc(O)cc1)NC(=O)[C@H](CO)NC(=O)[C@H](Cc1c[nH]c2ccccc12)NC(=O)[C@H](Cc1cnc[nH]1)NC(=O)[C@@H]1CCC(=O)N1)C(=O)N[C@@H](CCCNC(=N)N)C(=O)N1CCC[C@H]1C(=O)NNC(N)=O
Result: 0

Problem: Proceed to CC[C@H](CO)Nc1nc(NCc2ccccc2)c2ncn(C(C)C)c2n1
Result: 0

Problem: Proceed to C/C(=C\c1csc(C)n1)[C@@H]1C[C@@H]2O[C@]2(C)CCC[C@H](C)[C@H](O)[C@@H](C)C(=O)C(C)(C)[C@@H](O)CC(=O)N1 [Ixabepilone]
Result: 0

---

System: CAL-148
assay.notes: normalised viability (% of control), CellTiter-Blue; higher = more viable cells (about 100 = DMSO control)
applied.conditions: incubation time: 72 h
quantity.measured: normalised viability (%)
Answer with a number only, understood to be in %.

Reference set (2 entries):
[[record]]
molecule = "CC[C@H](CO)Nc1nc(NCc2ccccc2)c2ncn(C(C)C)c2n1 [Roscovitine] (300 nM)"
quantity_measured = "normalised viability"
val = 88.6

[[record]]
molecule = "CC(=O)[C@]1(O)Cc2c(O)c3c(c(O)c2[C@@H](O[C@H]2C[C@H](N)[C@H](O)[C@H](C)O2)C1)C(=O)c1ccccc1C3=O [Idarubicin] (30 nM)"
quantity_measured = "normalised viability"
val = 40.7


Problem: # returns recorded normalised viability (system: CAL-148) for C=CCN(/C=C1/C(=O)O[C@H](COC)[C@@]2(C)C1=C(O)C(=O)C1=C2[C@H](OC(C)=O)C[C@]2(C)C(=O)CC[C@@H]12)CC=C [PX-866] (300 nM)
Result: 116

Problem: Proceed to CCNC(=O)CCC/C=C\C[C@@H]1[C@@H](/C=C/[C@@H](O)CCc2ccccc2)[C@H](O)C[C@@H]1O [Bimatoprost] (165 nM)
Result: 94.6

Problem: Proceed to C/C(=C\c1csc(C)n1)[C@@H]1C[C@@H]2O[C@]2(C)CCC[C@H](C)[C@H](O)[C@@H](C)C(=O)C(C)(C)[C@@H](O)CC(=O)N1 [Ixabepilone] (30 nM)
Result: 99.2

---

# EC50, CellTiter-Blue viability listing for each entry below
Test system: MDA-MB-468
applied.conditions: 72 h

Problem: Look at this molecule and give its reported EC50, CellTiter-Blue viability. C=CCN(/C=C1/C(=O)O[C@H](COC)[C@@]2(C)C1=C(O)C(=O)C1=C2[C@H](OC(C)=O)C[C@]2(C)C(=O)CC[C@@H]12)CC=C
Result: 1390 nM

---

System: BT-549
assay.notes: drug sensitivity score (DSS), CellTox Green (DSS (AUC-based score)); higher = stronger drug effect (viability inhibition or cytotoxicity); extreme values may be limits of the assay
applied.conditions: incubation time: 72 h
# drug sensitivity score listing for each entry below
Respond with the number and no other words.

[[record]]
compound = "CO[C@@]12[C@H](COC(N)=O)C3=C(C(=O)C(C)=C(N)C3=O)N1C[C@@H]1N[C@@H]12 [Mitomycin C]"
val = 0

[[record]]
compound = "O=C(O)CNC(=O)c1c(O)c2ccccc2n(Cc2ccccc2)c1=O [IOX-2]"
val = 2.91


Please look at the following compound next.
Problem: Look at this compound and give its reported drug sensitivity score. CO[C@@H]1[C@H](N(C)C(=O)c2ccccc2)C[C@H]2O[C@]1(C)n1c3ccccc3c3c4c(c5c6ccccc6n2c5c31)C(=O)NC4 [Midostaurin]
Result: 12.6

---

# normalised response listing for each entry below
Tested on: BT-474
assay.notes: normalised response (% of control), CellTox Green; higher = less cell death (100 = DMSO, 0 = benzethonium chloride kill control)
applied.conditions: incubation time: 72 h
Answer with a number only, understood to be in %.

Reference set (3 entries):
[[record]]
molecule = "CC(C)C[C@H](NC(=O)[C@@H](COC(C)(C)C)NC(=O)[C@H](Cc1ccc(O)cc1)NC(=O)[C@H](CO)NC(=O)[C@H](Cc1c[nH]c2ccccc12)NC(=O)[C@H](Cc1cnc[nH]1)NC(=O)[C@@H]1CCC(=O)N1)C(=O)N[C@@H](CCCNC(=N)N)C(=O)N1CCC[C@H]1C(=O)NNC(N)=O [Goserelin] (100 nM)"
measured_target = "BT-474"
unit_of_measure = "%"
val = 101

[[record]]
molecule = "CC(O)(CS(=O)(=O)c1ccc(F)cc1)C(=O)Nc1ccc(C#N)c(C(F)(F)F)c1 (stereo not drawn) [Bicalutamide] (1000 nM)"
measured_target = "BT-474"
unit_of_measure = "%"
val = 104

[[record]]
molecule = "CC(C)n1cnc2c(NCCc3ccc(O)cc3)nc(-c3csc4ccccc34)nc21 [StemRegenin 1] (1000 nM)"
measured_target = "BT-474"
unit_of_measure = "%"
val = 100


Please look at the following molecule next.
Problem: Look at this molecule and give its reported normalised response. CC1(C)CCC(c2ccc(Cl)cc2)=C(CN2CCN(c3ccc(C(=O)NS(=O)(=O)c4ccc(N[C@H](CCN5CCOCC5)CSc5ccccc5)c(S(=O)(=O)C(F)(F)F)c4)cc3)CC2)C1 [Navitoclax] (10000 nM)
Result: 70.3

---

Tested on: HCC1937
assay.notes: normalised response (% of control), CellTox Green; higher = less cell death (100 = DMSO, 0 = benzethonium chloride kill control)
applied.conditions: incubation time: 72 h
quantity.measured: normalised response (%)
Answer with a number only, understood to be in %.

[[record]]
compound = "Cn1cc(C2=C(c3cn(C4CCN(Cc5ccccn5)CC4)c4ccccc34)C(=O)NC2=O)c2ccccc21 [Enzastaurin] (10000 nM)"
val = 121


Problem: Look at this compound and give its reported normalised response. Cc1cn(-c2cc(NC(=O)c3ccc(C)c(Nc4nccc(-c5cccnc5)n4)c3)cc(C(F)(F)F)c2)cn1 [Nilotinib] (10000 nM)
Result: 93.1

Problem: Proceed to Cc1nc(C(=O)NCC(=O)O)c(O)c2ccc(Oc3ccccc3)cc12 [FG-4592] (1000 nM)
Result: 110

Problem: Proceed to CCN(CC)CCCC(C)Nc1ccnc2cc(Cl)ccc12 (configuration not stated) [Chloroquine] (1000 nM)
Result: 102

Problem: Proceed to CNC(=O)c1ccccc1Sc1ccc2c(/C=C/c3ccccn3)n[nH]c2c1 [Axitinib] (1000 nM)
Result: 122

Problem: Proceed to C=CCn1c(=O)c2cnc(Nc3ccc(N4CCN(C)CC4)cc3)nc2n1-c1cccc(C(C)(C)O)n1 [MK1775] (10000 nM)
Result: 65.6

Problem: Proceed to CC[C@H](CO)Nc1nc(NCc2ccccc2)c2ncn(C(C)C)c2n1 [Seliciclib] (100 nM)
Result: 118

Problem: Proceed to Cc1nc(C(=O)NCC(=O)O)c(O)c2ccc(Oc3ccccc3)cc12 [FG-4592] (10000 nM)
Result: 72.6

Problem: Proceed to Nc1ccn([C@@H]2O[C@H](CO)[C@@H](O)C2(F)F)c(=O)n1 [Gemcitabine] (100 nM)
Result: 89

---

Tested on: SK-BR-3
assay.notes: normalised response (% of control), CellTiter-Glo; higher = more viable cells (100 = DMSO, 0 = benzethonium chloride kill control)
applied.conditions: incubation time: 72 h
quantity.measured: normalised response (%)
Answer with a number only, understood to be in %.

[[record]]
compound = "Cn1cc(C2=C(c3cn(C4CCN(Cc5ccccn5)CC4)c4ccccc34)C(=O)NC2=O)c2ccccc21 [Enzastaurin] (1000 nM)"
quantity_measured = "normalised response"
val = 97.7

[[record]]
compound = "CCn1c(C(=O)N(C2CC2)C2CC2)cc2c3c(ncn3C)c(Nc3cc(C)n(C)n3)nc21 (1 nM)"
quantity_measured = "normalised response"
val = 102

[[record]]
compound = "CC(C)C[C@H](NC(=O)[C@@H](COC(C)(C)C)NC(=O)[C@H](Cc1ccc(O)cc1)NC(=O)[C@H](CO)NC(=O)[C@H](Cc1c[nH]c2ccccc12)NC(=O)[C@H](Cc1cnc[nH]1)NC(=O)[C@@H]1CCC(=O)N1)C(=O)N[C@@H](CCCNC(=N)N)C(=O)N1CCC[C@H]1C(=O)NNC(N)=O [Goserelin] (10 nM)"
quantity_measured = "normalised response"
val = 119

[[record]]
compound = "CCN(CC)CCCC(C)Nc1ccnc2cc(Cl)ccc12 (stereo not drawn) [Chloroquine] (100 nM)"
quantity_measured = "normalised response"
val = 88.3


Problem: Look at this compound and give its reported normalised response. O=C(CCCCCCC(=O)Nc1ccccc1)NO [Vorinostat] (1 nM)
Result: 88

Problem: Proceed to C=CCn1c(=O)c2cnc(Nc3ccc(N4CCN(C)CC4)cc3)nc2n1-c1cccc(C(C)(C)O)n1 [MK1775] (1000 nM)
Result: 14.4

Problem: Proceed to C/C(=C\c1csc(C)n1)[C@@H]1C[C@@H]2O[C@]2(C)CCC[C@H](C)[C@H](O)[C@@H](C)C(=O)C(C)(C)[C@@H](O)CC(=O)N1 [Ixabepilone] (100 nM)
Result: 106

Problem: Proceed to CC1(C)CCC(c2ccc(Cl)cc2)=C(CN2CCN(c3ccc(C(=O)NS(=O)(=O)c4ccc(N[C@H](CCN5CCOCC5)CSc5ccccc5)c(S(=O)(=O)C(F)(F)F)c4)cc3)CC2)C1 [Navitoclax] (10 nM)
Result: 77.3
